Assignment: determine reported MRT0-∞ for the given compounds.
assay: in vivo; settings: rat, in vivo, po, 4 mg/kg
Your answer should be a plain number; it is taken to be in h.

Query string: Consider the compound [Ca] [Calcium] and give its measured MRT0-∞.
Result string: 5.55

Query string: // lookup MRT0-∞ for [K+] [Potassium]
Result string: 5.31

Query string: What does the record list as MRT0-∞ for [Mg] [Magnesium] ?
Result string: 4.87

Query string: // MRT0-∞ lookup, key: CNC[C@H](O)[C@@H](O)[C@H](O)[C@H](O)CO [Meglumine]
Result string: 4.83

====

test: in vivo; details: rat, in vivo, po, 4 mg/kg
TEST_READOUT: Tmax
Note to self: number, then unit, no commentary.

Query string: Fill in: Tmax of [Mg] is ___
Result string: 3.33 h

Query string: Any idea what its Tmax is? The compound is CNC[C@H](O)[C@@H](O)[C@H](O)[C@H](O)CO
Result string: 3.00 h

Query string: Look up Tmax: [Ca]
Result string: 4.00 h

Query string: Quick one: Tmax of [K+] ?
Result string: 4.00 h

====

assay: in vivo; conditions: male, beagle, dog, po, 4 mg/kg
TEST_READOUT: bioavailability (%)
Quick reminder: number only, in %, skip the unit.

Query string: Quick check: bioavailability of O=C(Nc1c(F)c(F)c(-c2cccc(OC(F)(F)F)c2)c(F)c1F)c1ccsc1C(=O)O [PP-001 free acid] ?
Result string: 23

====

assay: in vivo; details: rat, in vivo, po
TEST_READOUT: Increase in oral BA vs free acid in rats
Form field (numeric): enter value without unit.

Query string: Which value of Increase in oral BA vs free acid in rats has been reported for CNC[C@H](O)[C@@H](O)[C@H](O)[C@H](O)CO in the records?
Result string: 1.3

Query string: Field request: Increase in oral BA vs free acid in rats | item: [Mg]
Result string: 1.7

Query string: Increase in oral BA vs free acid in rats for [K+] ?
Result string: 0.7

Query string: Recorded Increase in oral BA vs free acid in rats for [Ca] , please?
Result string: 2.0

====

Exercise: for every item that follows, state its recorded Solubility at different time points, 0.5 h.
experiment: Kinetic solubility of PP-001 salts in FaSSIF (HPLC); format: physicochemical; conditions: 4 mL FaSSIF, 25° C., target 2 mg/mL, 0.5 h
Give the quantity in µg/mL, number only.

Query string: Fill in: Solubility at different time points, 0.5 h of NCCCC[C@H](N)C(=O)O is ___
Result string: 2040

Query string: Sample CNC[C@H](O)[C@@H](O)[C@H](O)[C@H](O)CO — what was its Solubility at different time points, 0.5 h?
Result string: 2010

Query string: Record request: Solubility at different time points, 0.5 h value, item [Mg]
Result string: 1520

Query string: For the compound shown here, [K+] , give the reported Solubility at different time points, 0.5 h.
Result string: 1700

Query string: // query Solubility at different time points, 0.5 h value for entry [Ca]
Result string: 750

====

test: in vivo; details: rat, in vivo, po, 4 mg/kg
TEST_READOUT: AUCinf/D (kg·ng·h/mL/mg)
Response body: numeric value in kg·ng·h/mL/mg, unit text excluded.

Query string: // returns reported AUCinf/D for input [Ca]
Result string: 6789

Query string: Tell me the measured AUCinf/D of [Mg] , please.
Result string: 5757

Query string: Name the recorded AUCinf/D for CNC[C@H](O)[C@@H](O)[C@H](O)[C@H](O)CO .
Result string: 4271

Query string: What does the data say about its AUCinf/D? Entry: [K+]
Result string: 2528
